test system: NCI-H1944; assay: normalised cell viability (NPI; 0 = phenylarsine oxide control, 1 = DMSO control) (fraction of DMSO control); higher = more viable cells (less compound toxicity); conditions: glucocorticoid arm: vehicle; compound 5 µM; 6 days
Structures can show the parent of a compound that is named as a salt. Whole data set: some 1,900 compounds, median “normalised cell viability (NPI; 0 = phenylarsine oxide control, 1 = DMSO control)” near 1, cut for the lowest 2% near 0.039. What follows is part of a selection rich in the lowest values, with near analogues and random picks from the rest.
Quantity Measured: normalised cell viability
// keep it numeric: no unit symbol after the value

normalised cell viability lookup needed for O=c1[nH]cc(F)c(=O)[nH]1 [5-Fluorouracil] , thanks. 0.729

Please give the result for O=c1[nH]cc(F)c(=O)[nH]1 [5-Fluorouracil; Fluorouracil] too. 0.522

Please give the result for CN1CCc2c(c3ccccc3n2Cc2ccc(C(=O)NO)cc2)C1 [Tubastatin A HCl] too. 0.99

Please give the result for CN1CCc2c(c3ccccc3n2Cc2ccc(C(=O)NO)cc2)C1 [Tubastatin A] too. 0.993

Please give the result for Cc1ccc(S(=O)(=O)C=CC#N)cc1 too. 0.688

Please give the result for CCCCCCCCCCCCCCCc1cccc(O)c1C(=O)O too. 1.01

###

Would you mind telling me the reported normalised cell viability of each entry?
tested on: NCI-H1944; experiment: normalised cell viability (NPI; 0 = phenylarsine oxide control, 1 = DMSO control) (fraction of DMSO control); higher = more viable cells (less compound toxicity); details: glucocorticoid arm: hydrocortisone 2.75 uM pre-treated 2 days and continued; compound 5 µM; 6 days
Structures can show the parent of a compound that is named as a salt. The full ranking holds about 1,900 compounds; the median of “normalised cell viability (NPI; 0 = phenylarsine oxide control, 1 = DMSO control)” is about 1, and the lowest 2% start at about 0.039. What follows is part of a selection rich in the lowest values, with near analogues and random picks from the rest.
// keep it numeric: no unit symbol after the value

normalised cell viability lookup needed for CCCCCC[C@@H]([C@@H](C)O)n1cnc2c(N)ncnc21 [erythro-9-(2-Hydroxy-3-nonyl)adenine hydrochloride] , thanks. 0.997

Please give the result for CN(C(Cc1ccc(OS(=O)(=O)c2cccc3cnccc23)cc1)C(=O)N1CCN(c2ccccc2)CC1)S(=O)(=O)c1cccc2cnccc12 (stereo not drawn) too. 0.974

Please give the result for Cc1nc(N=Nc2cc([N+](=O)[O-])ccc2Cl)c(COP(=O)(O)O)c(C=O)c1O [MRS 2211 sodium salt hydrate] too. 0.995

###

test system: NCI-H1944; experiment: normalised cell viability (NPI; 0 = phenylarsine oxide control, 1 = DMSO control) (fraction of DMSO control); NCI-H1944 is a non-small cell lung cancer line; higher = more viable cells (less compound toxicity); settings: glucocorticoid arm: hydrocortisone 2.75 uM co-treatment; compound 1 µM; 6 days;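 further: CTB read-out in 384-well plates, triplicate wells, NPI normalised per plate against 1 µM phenylarsine oxide (0) and 0.1% DMSO (1) controls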
Structures can show the parent of a compound that is named as a salt. Over roughly 1,900 compounds, “normalised cell viability (NPI; 0 = phenylarsine oxide control, 1 = DMSO control)” has its median near 1; the lowest 2% begin near 0.039. This excerpt belongs to a sample that is enriched for the lowest values.
Would you mind telling me the reported normalised cell viability of each entry?
// keep it numeric: no unit symbol after the value

normalised cell viability lookup needed for Cn1c(=O)n(-c2ccc(C(C)(C)C#N)cc2)c2c3cc(-c4cnc5ccccc5c4)ccc3ncc21 , thanks. 0.421

Please give the result for CCN1CCN(Cc2ccc(-c3cc4c(N[C@H](C)c5ccccc5)ncnc4[nH]3)cc2)CC1 too. 0.812

Please give the result for O=C(CCCCCCC(=O)Nc1ccccc1)NO [Vorinostat (SAHA, MK0683)] too. 0.94

Please give the result for O=C(c1ccc(Cl)cc1)N1CCN(c2ccc([N+](=O)[O-])c3ncccc23)CC1 too. 1.01

Please give the result for C=C1C(=O)O[C@@H](CCC)[C@@H]1C(=O)O too. 1

Please give the result for Ic1ccc(N2CCN(Cc3c[nH]c4ncccc34)CC2)cc1 [L-750,667 trihydrochloride] too. 0.969

Please give the result for O=C1c2c(O)cc(O)cc2O[C@H](c2ccc(O)c(O)c2)[C@H]1O (racemic) [(±)-Taxifolin] too. 1.01

Please give the result for Clc1ccc(C(c2ccc(Cl)cc2)[n+]2ccn(CC(OCc3ccc(Cl)cc3Cl)c3ccc(Cl)cc3Cl)c2)cc1 (stereo not given) [Calmidazolium chloride] too. 0.974

Please give the result for Cc1ccccc1N1CCN(S(=O)(=O)C[C@]23CC[C@H](C[C@@H]2NC(=O)[C@@H](N)CCS(C)(=O)=O)C3(C)C)CC1 [L-368,899 hydrochloride] too. 0.99

Please give the result for Cc1cc([C@@H](C)Nc2ccccc2C(=O)O)c2nc(N3CCOCC3)cc(=O)n2c1 too. 0.878

Please give the result for COc1ccc2c3n(c(=NC(=O)c4cccnc4)nc2c1OC)CCN3 too. 0.911

Please give the result for O=C(c1ccc2c(c1)OCCO2)N1CCCCC1 too. 1

Please give the result for N[C@H](CO)C(=O)O too. 1.01

Please give the result for CC[C@@H]1SC2(CCN(C)CC2)NC1=O too. 1.02

Please give the result for CO[C@H](C(=O)[C@@H](O)[C@@H](C)O)[C@@H]1Cc2cc3cc(O[C@H]4C[C@@H](O[C@H]5C[C@@H](O)[C@H](O)[C@@H](C)O5)[C@H](O)[C@@H](C)O4)c(C)c(O)c3c(O)c2C(=O)[C@H]1O[C@H]1C[C@@H](O[C@H]2C[C@@H](O[C@H]3C[C@](C)(O)[C@H](O)[C@@H](C)O3)[C@@H](O)[C@@H](C)O2)[C@H](O)[C@@H](C)O1 too. 0.0675

Please give the result for N.N.N.N.N.N.N.N.N.N.N.N.N.N.O.O.[Cl-].[Cl-].[Cl-].[Cl-].[Cl-].[Cl-].[Ru+4].[Ru+5].[Ru+5] too. 0.991

Please give the result for CC(C)(C)OC(=O)Nc1ccc(-c2cc(C(=O)NCCCCCCC(=O)NO)no2)cc1 too. 0.957

Please give the result for N=C(N)NCCCCNC(=N)N [Arcaine sulfate] too. 0.987

Please give the result for Oc1cc2c(c(Cl)c1O)CCNCC2c1ccccc1 (racemic) [(±)-6-Chloro-PB hydrobromide] too. 1.01

Please give the result for CC1=C(C(=O)OC2CCCCC2)C(c2ccc([N+](=O)[O-])cc2)C2=C(CC(C)(C)CC2=O)N1 (stereo not given) too. 1.03

Please give the result for CNC(=N)NCCC[C@H](N)C(=O)O [NG-Monomethyl-L-arginine acetate] too. 1

Please give the result for NC(C(=O)O)C(O)C(=O)O (racemic) [DL-threo-beta-hydroxyaspartic acid] too. 1.01

Please give the result for N[C@@H](CCCC(=O)O)C(=O)O too. 0.995

Please give the result for O=C(CCCCCCC(=O)Nc1ccccc1)NO [Vorinostat; SAHA] too. 0.928

Please give the result for CCOc1ccc(Cc2cc([C@@H]3O[C@H](CO)[C@@H](O)[C@H](O)[C@H]3O)ccc2Cl)cc1 too. 1.01

Please give the result for OCc1ccc(-c2ccc(-c3ccc(CO)s3)o2)s1 too. 0.979

Please give the result for CNC(=O)[C@H]1O[C@@H](n2cnc3c(N)ncnc32)[C@H](O)[C@@H]1O too. 0.982

Please give the result for CCC(=O)N1CCN(c2ccc(-n3c(=O)ccc4cnc5ccc(-c6cnc7ccccc7c6)cc5c43)cc2C(F)(F)F)CC1 too. 0.4

Please give the result for CC1(C)CNc2cc(NC(=O)c3cccnc3NCc3ccncc3)ccc21 [Motesanib Diphosphate] too. 1.02

Please give the result for COc1cc2c(cc1OC)[C@@H](c1ccccc1)CN(C)CC2 too. 0.991

// provenance: the supplement of paper PMC8285479
